# credit: ChEMBL document CHEMBL1152554

assay: Ratio of drug level in brain to plasma in Wistar rat at 400 ug/kg, po after […]; type: ADME, organism-based; details: 0.4 mg/kg, read-out: BPR
quantity name: Kp at […]

Recorded result, O=C(O)C(=O)O.O=[14C](N[C@@H]1CC[C@@]2(O)[C@H]3Cc4ccc(O)c5c4[C@@]2(CCN3CC2CC2)[C@H]1O5)c1ccc(Br)cc1 , Kp at […]: 2.3
